Assay: NCI Yeast Anticancer Drug Screen. Data for the bub3 strain (AID 167)
Settings: S. cerevisiae bub3 mutant strain, at 50.0 µM, hits give high values
This is part of a sample that, as a whole, favours compounds with a hit. Of some 79,000 tested, about 15% had one in any assay.
endpoint label: growth inhibition (%)
Answers are plain numbers, in %.

// solved cases for growth inhibition follow
CCCC(C)COC(=O)Cc1ccccc1 (configuration not stated)    4.3
CCCCSCCC(N)P(=O)(O)O (configuration not stated)    -15.2
CCCCC(CC)COP(OCC(CC)CCCC)OCC(CC)CCCC.[Br][Hg][Br] (configuration not stated)    -8.95
C=C1CC/C=C(/C)C(=O)C(OC(C)=O)C2C1CC2(C)C (configuration not stated)    86.2
CCNC(=O)CCl    -0.9
[N-]=[N+]=NP1(=O)OC(c2ccccc2)=CCN1c1ccccc1 (configuration not stated)    8.65
CSP(=S)(SC(C)C)SC(C)C    0.5
[Cl][Pt+2][Cl].[NH-]c1ccc([N+](=O)[O-])cc1[NH-]    68.3
O=[n+]1c2ccccc2n([O-])c2ccccc21.[Cl][Cu][Cl]    97.7
Cc1cc(N(CCCl)CCCl)ccc1CN1CCCN(Cc2ccc(N(CCCl)CCCl)cc2C)C1c1ccccc1O    0.05

For every item below, please supply its growth inhibition.
1. O=NN(O)c1ccccc1.O=NN(O)c1ccccc1.[Mn+2]
2. CCOP(=S)(OCC)Oc1ccccc1

Marked response:
[-4.3, -20.9]

* * *

Experiment: NCI Yeast Anticancer Drug Screen. Data for the mlh1 rad18 strain (AID 175)
Settings: S. cerevisiae mlh1 rad18 strain growth inhibition; at 50.0 µM; hits give high values
Description: Growth inhibition of yeast strains with defined genetic alterations is measured as a screen for potential anti-cancer activity. Selected strains with alterations in DNA damage repair or cell cycle control were exposed to compounds and growth inhibition was measured relative to vehicle treated controls. The strain used in this assay is mlh1 rad18
About 79,000 compounds went through this panel and 15% of them were active in at least one assay; those are over-represented in the sample as a whole.
endpoint label: growth inhibition (%)
Answers are plain numbers, in %.

CC(=O)[O][Sn]([CH3])([CH3])[c]1ccccc1    96.3

The following compounds each have a reported value; give each one's growth inhibition.
1. Fc1ccc(C(Cl)(Cl)Cl)cc1
2. CC1CN1P1(N2CC2C)=NP(N2CC2C)(N2CC2C)=NP(N2CC2C)(N2CC2C)=N1 (stereo not drawn)
3. CCCC(C)c1ccccc1OP(=S)(S)Oc1ccccc1C(C)CCC (stereo not drawn)
4. CCN(CC)C(=O)N1CC2CCC(C1)N2C
5. O=C(NCC1(O)N=C(c2ccc(F)cc2)c2ccsc2-n2cccc21)c1ccc(Cl)cc1Cl (stereo not drawn)

Marked response:
[6.2, 5.5, 97.2, -10.2, 94.9]

* * *

Hi there, I'd appreciate the recorded growth inhibition for every entry that follows.
Test: NCI Yeast Anticancer Drug Screen. Data for the sgs1 mgt1 strain (AID 161);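 note: 0% = growth of cultures given vehicle only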
Conditions: S. cerevisiae sgs1 mgt1 strain, at 50.0 µM, hits give high values
Procedure: Growth inhibition of yeast strains with defined genetic alterations is measured as a screen for potential anti-cancer activity. Selected strains with alterations in DNA damage repair or cell cycle control were exposed to compounds and growth inhibition was measured relative to vehicle treated controls. The strain used in this assay is sgs1 mgt1
This is part of a sample that, as a whole, favours compounds with a hit. Of some 79,000 tested, about 15% had one in any assay. Calls of active or inactive are those of the source. Cut-off read from the data, not from the text of the source: active = growth inhibition above about 70%; inactive = the rest.

For orientation, consider the following solved cases.
Cc1c2ccncc2c(CN(CCCl)CCCl)c2c3ccccc3n(C)c12    85.2% (active)
CC12CCC(=O)C=C1CCC1C2CCC2(C)C(OC(=O)C34C=CC(=O)C3C3C=CC4CC3)CCC12 (stereo not drawn)    14.3% (inactive)
CN(C(=[Se])[Se]C(=[Se])N(C)C1CCCCC1)C1CCCCC1    8.35% (inactive)
CN(C)C(=O)Sc1c(Cl)cc(S(=O)(=O)F)cc1[N+](=O)[O-]    27.9% (inactive)
[Pt].c1ccc([PH+](CC[PH+](CC[PH+](c2ccccc2)c2ccccc2)c2ccccc2)CC[PH+](c2ccccc2)c2ccccc2)cc1 (stereo not drawn)    25.6% (inactive)
CCCCCCCCCCCCC(=O)O.[Pb]    -14.4% (inactive)
OC1=C2CCCCCC2=[N+]2CCCCC2C1 (stereo not drawn)    52.5% (inactive)
N#CCCCBr    7.2% (inactive)
CC1CN1P1(N2CC2C)=NP(N2CC2C)(N2CC2C)=NP(N2CC2C)(N2CC2C)=N1 (stereo not drawn)    2.75% (inactive)
CC(C)(C)C1=C(Br)C(OC(=O)C(F)(F)F)(C(C)(C)C)OP1(=O)c1ccccc1 (stereo not drawn)    -22.9% (inactive)

Look up growth inhibition for the entries below, preserving their order.
1. CCC[CH2][Sn]1([CH2]CCC)[O]C(=O)CN=Cc2ccccc2[O]1
2. CC1NCCc2c1[nH]c1cc(O)ccc21 (stereo not drawn)
3. C#C[C@]1(O)CC[C@H]2[C@@H]3CCC4=C/C(=N/OC(=O)c5cccc6c(=O)c7ccccc7[nH]c56)CCC4[C@H]3CC[C@@]21CC (stereo partly drawn)
4. CC(O)CCC(=O)c1ccoc1 (stereo not drawn)
5. O=[N+]([O-])CCCCl
6. O=C1OCC2CC3C4C=CC(C4)C3C12 (stereo not drawn)

Marked response:
1: 90% (active); 2: 5.5% (inactive); 3: -30.4% (inactive); 4: 1.45% (inactive); 5: -3.05% (inactive); 6: 99.4% (active)

Report growth inhibition for each item below.
1. CC(=O)N1CCCN(C)/C1=N/[N+](=O)[O-]
2. CC(C)(C)C1=C(Br)C(F)(C(C)(C)C)OP1(=O)c1ccccc1 (stereo not drawn)
3. O=[N+]([O-])O.[Ce]
4. O=C(COc1ccc(Cl)c(Cl)c1)Nc1ccc[n+](Cc2ccc(S(=O)(=O)F)cc2Cl)c1
5. CN1C(=O)C2(Cc3cn(C45CC67SSC(CO)(C(=O)N6C4Nc4ccccc45)N(C)C7=O)c4ccccc34)SSC1(CO)C(=O)N2C (stereo not drawn)
6. CC(C)(OOC(C)(C)c1ccccc1)c1ccccc1

Marked response:
-6.7% (inactive)
90.5% (active)
17.9% (inactive)
17.6% (inactive)
90.3% (active)
4.6% (inactive)

Exam item: What measured growth inhibition goes with NNC(=O)c1ccc(O)cc1 ?
Marked response: -13.3% (inactive)

* * *

Please provide measured growth inhibition for the entries that follow.
Assay: NCI Yeast Anticancer Drug Screen. Data for the cln2 rad14 strain (AID 165);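 note: 0% = growth equal to vehicle treated cultures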
Conditions: S. cerevisiae cln2 rad14 strain, at 5.0 µM (retest, dose inferred, filed as 0.5), hits give high values
This is part of a sample that, as a whole, favours compounds with a hit. Of some 79,000 tested, about 15% had one in any assay. Calls of active or inactive are those of the source. Rule as the data show it: active = growth inhibition above about 70%; inactive = the rest.

I need growth inhibition for every entry listed below, if you could help.
1. Cc1cc(CCN)c(C)c2c1oc1ccccc12
2. CC(C)CC[CH2][Pb]([CH2]CCC(C)C)([CH2]CCC(C)C)[O]C(=O)C(Cl)(Cl)Cl
3. COc1ccc2c(c1)CCC(N1CCCC(=O)C1)C2 (configuration not stated)
4. CC(=O)c1ccc([As]=O)cc1 (configuration not stated)
5. CC(=O)[O][Sn]([c]1ccccc1)([c]1ccccc1)[c]1ccccc1
6. CCCCCCCC[N+]12CN3CN(CN(C3)C1)C2
7. CC(=O)Nc1ccc([As](O[As](c2ccc(NC(C)=O)cc2)c2ccc([N+](=O)[O-])cc2)c2ccc([N+](=O)[O-])cc2)cc1 (configuration not stated)
8. ClCc1ccncc1

Marked response:
-5% (inactive)
-1% (inactive)
11% (inactive)
-9% (inactive)
90% (active)
2% (inactive)
99% (active)
38% (inactive)

* * *

Assay: NCI Yeast Anticancer Drug Screen. Data for the rad50 strain (AID 155);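 note: 0% = growth of vehicle-only cultures of the same strain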
Settings: S. cerevisiae rad50 strain growth inhibition; at 50.0 µM
About 79,000 compounds went through this panel and 15% of them were active in at least one assay; those are over-represented in the sample as a whole. Calls of active or inactive are those of the source. No stated cut-off is given here; in the data, active means growth inhibition above about 70%; inactive means the rest.
Hello, when you answer, please use one of the following outcomes: active, inactive

// known answers, use as guide
Cn1c(O)c(C(=O)NC2CCCCC2)c(=O)n(C)c1=S    inactive
COCCOCCOC(=O)CBr    active
CN(C)C(=O)Oc1c(Cl)cc(S(=O)(=O)F)cc1Cl    inactive
CC(C)CC(=O)[O-].CC(C)CC(=O)[O-].N.N.N.N.[Co+3].[O-][Cl+3]([O-])([O-])O.[O-][Cl+3]([O-])([O-])[O-]    inactive
CC(CC(C)(C)[N-]CC[O-])=NCCO.O=[N+]([O-])O.[Cu+2]    inactive
CC(C)Oc1ccccc1OC(=O)N(C)C=O    inactive
CC(=O)[O][Pb]([O]C(C)=O)([O]C(C)=O)[c]1ccccc1    active
CC1=C[C@H]2O[C@H]3C[C@H]4OC(=O)/C=C\C=C\C(=O)OCC[C@@H](C)[C@H](O)C(=O)OC[C@@]2(CC1)[C@@]4(C)[C@]31CO1    active

Exam item: Assay outcome for Clc1ccc2c(c1)Cc1cc(N(CCBr)CCBr)ccc1-2 : what was it?
Marked response: inactive

Exam item: Assay outcome for O=C(CCl)OCc1ccccc1 : what was it?
Marked response: inactive

Exam item: // param item: Nc1ncnc(N)n1 ; yields the recorded call
Marked response: inactive
